Test System: canine heme-regulated inhibitor (HRI), heme-regulated eIF2α kinase (Canis lupus, UniProt C4PB17)
Sequence (C4PB17 1-630): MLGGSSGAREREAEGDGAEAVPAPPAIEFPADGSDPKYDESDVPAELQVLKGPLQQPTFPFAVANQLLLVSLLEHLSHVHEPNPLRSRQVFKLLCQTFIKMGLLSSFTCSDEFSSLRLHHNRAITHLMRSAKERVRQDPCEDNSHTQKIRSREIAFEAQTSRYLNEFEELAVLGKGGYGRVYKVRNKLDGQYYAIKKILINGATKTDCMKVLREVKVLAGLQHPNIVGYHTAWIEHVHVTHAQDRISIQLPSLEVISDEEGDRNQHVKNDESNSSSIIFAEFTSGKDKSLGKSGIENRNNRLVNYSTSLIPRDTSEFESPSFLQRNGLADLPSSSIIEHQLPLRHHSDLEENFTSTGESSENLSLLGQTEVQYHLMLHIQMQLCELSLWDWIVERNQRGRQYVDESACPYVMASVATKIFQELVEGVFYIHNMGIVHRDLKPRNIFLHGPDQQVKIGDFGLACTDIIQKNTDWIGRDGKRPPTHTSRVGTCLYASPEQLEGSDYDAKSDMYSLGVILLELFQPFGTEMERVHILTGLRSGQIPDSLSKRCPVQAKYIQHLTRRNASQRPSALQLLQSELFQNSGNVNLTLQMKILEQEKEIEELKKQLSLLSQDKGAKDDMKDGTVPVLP
Outcome Measure: IC50

Would you mind telling me what IC50 value was observed for O=c1c(O)c(-c2ccc(O)c(O)c2)oc2cc(O)cc(O)c12 [quercetin, 3,3′,4′,5,7-pentahydroxyflavone] ? ~1000 nM
